- System: CEM cells HIV-1 protection, formazan growth assay
- Protocol: NCI AIDS Antiviral Assay
Active and inactive are the calls of the source.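 How the source made its calls: active means compounds giving half or more protection of infected cells from virus-caused growth loss, again on retest; inactive means the rest.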 *1 amine or outer side, *2 acyl side, *3 side chain or, on linkers, in order; H or OH if unused. Where a SMILES comes first, the peptide text is derived from it. Bridges are numbered along the chain shown (N, C = ends). [ ]: non-standard residue; d: D form. The star is where a group is joined. X22 = CC(C)C(C)C(C(=O)[*:2])N(C)[*:1]; Picolinoyl(3-OH) = O=C(c1ncccc1O)*; NMePhg = CN[CH](C(=O)O)c1ccccc1; Hyp = O=C(O)[CH]1C[CH](O)CN1; Sar = CNCC(=O)O
Classes used: active, inactive

1. COc1ccc(/C=N/NS(=O)(=O)c2ccccc2)cc1 = inactive
2. CCCCCC(=O)OCCOCCOCCOCCOCCOCc1ccccc1 = inactive
3. COc1cc2c(cc1OC)/C(=C\c1ccccc1N)C(=O)OC2 = inactive
4. COC(=O)C1(C(=O)OC)CC2c3c(c4ccccc4n3C)CC(C1=O)N2Cc1ccccc1 (stereo not drawn) = inactive
5. CC(=Nc1ccc(Cl)cc1)c1ccncc1 = inactive
6. Cc1ccc(O)c(C(c2ccc([N+](=O)[O-])cc2)c2cc(C)ccc2O)c1 = inactive
7. N#Cc1nc(-c2ccccc2C(=O)O)oc1N = inactive
8. Nc1ccccc1S(=O)(=O)c1ccccc1 = active
9. NNC(=O)C(=O)N/N=C(/CCC(=O)NCCc1ccccc1)CC(=O)c1ccccc1 = inactive
10. CC1OC(=O)C(O)=C1O (stereo not drawn) = inactive
11. CCN(CC)C1=Nc2ccccc2-n2ccnc2C1 = inactive
12. CCOC(=O)N1CCc2cc(OC)c(OC)cc2/C1=C\c1ccc(OC)c(OC)c1 = inactive
13. Cc1ccc(NC(=O)SCCC(=O)O)cc1 = inactive
14. CC1=C(C(=O)Nc2ccccc2C)C(/C=C/c2ccccc2)C(C(=O)Nc2ccccc2C)=C(C)N1 = inactive
15. COc1ccc(CCNC=O)cc1OC = inactive
16. COc1cc(O)c(C(=O)/C=C/c2ccccc2)c(O)c1C1C=C(C)CCC1C(C)C (stereo not drawn) = inactive
17. CCOC(=O)C(Cc1c(C=O)[nH]c2ccccc12)(NC(=O)c1ccccc1)C(=O)OCC = inactive
18. N#Cc1cnc(-n2[nH]c3c(c2=O)CCCC3)[nH]c1=O = inactive
19. CC(=O)N/C=C/c1cc(O)ccc1O = inactive
20. CC(C)CC1NC(=O)C(NC(=O)c2ncccc2O)C(C)OC(=O)C(c2ccccc2)N(C)C(=O)C(C)NC(=O)C(C(C)C(C)C)N(C)C(=O)CN(C)C(=O)C2CC(O)CN2C1=O (stereo not drawn) ({Picolinoyl(3-OH)}-TL[Hyp][Sar][X22]A[NMePhg]; ester 1-C; configuration not given here) = inactive
21. O=C(O)Cc1cc(=O)[nH]c2c1/C(=N/O)CCC2 = inactive
22. O=c1ccn([C@@H]2C[C@H]2CO)c(=O)[nH]1 = inactive
23. CC(CCC(=O)O)[C@H]1CCC2[C@@H]3C(=O)C[C@@H]4CC(O)CC[C@]4(C)C3CC[C@@]21C (stereo partly drawn) = inactive
24. CCC1=C(CC2NCCc3ccccc32)CC2c3cc(OC)c(OC)cc3CCN2C1 (stereo not drawn) = inactive
25. N#Cc1ccc2oc3ccc(C#N)cc3c(=O)c2c1 = inactive
26. OCC1=CC(NC2CC(CO)C(O)C(O)C2O)C(O)C(O)C1O (stereo not drawn) = inactive
27. CCOC(=O)C(O)(NC(=O)c1ccccc1F)C(F)(F)F (stereo not drawn) = inactive
28. C=CCOC(OCC=C)/C(Br)=C/C = inactive
29. Cc1cc(N(C)C)ccc1N=Nc1ccc2ncccc2c1 = inactive
30. COC(=O)c1cccc2c3ccccc3c3ccccc3c12 = inactive
31. CCN1CC2(OC(=O)c3ccccc3NC(C)=O)CCC(OC)C34C1C(CC23)C1(O)CC(OC)C2CC4C1(O)C2OC (stereo not drawn) = inactive
32. Cc1ccc2c(c1)CNc1ccc(C)cc1CN2 = inactive
33. CN(C)CCCNC(=O)CNC(=O)c1cc(NC(=O)c2cc(NC(=O)c3cc(NC(=O)CCNC(=O)c4cc(NC(=O)c5cc(NC(=O)c6nccn6C)cn5C)cn4C)cn3C)cn2C)cn1C = inactive
34. FC(F)(F)c1nc(-c2ccccc2)oc1Sc1nnc(Sc2oc(-c3ccccc3)nc2C(F)(F)F)s1 = inactive
35. CC1CCC23COC(=O)C2=CCCC3C1(C)CC/C(=C/CO)CO (stereo not drawn) = inactive
36. OCC1NC(COC2OC(CO)C(O)C(O)C2O)C(O)C(O)C1O (stereo not drawn) = inactive
37. C=C(C)C12CC(C)C34OC(CCCCCCCCCCC)(OC1C3C1OC1(CO)C(O)C1(O)C(=O)C(C)=CC14C)O2 (stereo not drawn) = active
38. CCN(CC)CCOC(=O)/C=C/c1ccccc1 = inactive
39. Cc1nc2c(ccc3ncccc32)[nH]1 = inactive
40. CCCCC[C@@H]1CCCC2C1CC[C@@H](CCCCCI)N2C(=O)OCC(Cl)(Cl)Cl (stereo partly drawn) = inactive
41. CC1Cn2c(Cc3ccccc3)nnc2S1 (stereo not drawn) = inactive
42. COC(=N)/C(C#N)=N/C1OCC(O)C(O)C1O (stereo not drawn) = inactive
43. COc1cccc(/C=N\NC(=O)C(C)SC(C)C(=O)N/N=C/c2cccc(OC)c2)c1 (stereo not drawn) = inactive

====

- Tested on: CEM cells HIV-1 protection, formazan growth assay
- Protocol: NCI AIDS Antiviral Assay
- Conditions: measured here: growth of uninfected CEM cells
Value Kind: IC50 (µM)

1) C/C=C\C(O)C#Cc1cnc(OC)nc1OC (centres undefined) = 42.7
2) CCCc1cc(=O)oc2c3c(c4c(c12)OC(N)=C(C#N)C4c1ccccc1)O[C@H](C)[C@@H](C)C3=O (some centres undefined) = 8.71
3) Cc1nn(-c2ccccc2)c2[nH]c(=S)cnc12 = 87.1
4) Cc1cn(C2CC(F)C(COC(=O)CCCCCCCCCCCN=[N+]=[N-])O2)c(=O)[nH]c1=O (centres undefined) = 2
5) COc1cc(C2c3cc4c(c(O)c3C(=O)C3CCC(=O)N32)OCO4)cc(OC)c1OC (centres undefined) = 20.9
6) O=c1oc2c(-c3c(O)c(=O)oc4ccccc34)cc(O)cc2s1 = 97.7
7) O=C1C2CCCC3CCCC(C(=O)N1O)C32 (centres undefined) = 39.8
8) CCOC(=O)C(Cc1c(-c2[nH]c3ccccc3c2CC(NC(=O)CNC(C)=O)C(=O)OCC)[nH]c2ccccc12)NC(=O)CNC(C)=O (centres undefined) = 21.9
9) C[N+](C)(C)CC(=O)N/N=C/c1oc(-c2c(O)ccc3ccccc23)c(-c2c(O)ccc3ccccc23)c1[N+](=O)[O-] = 24.5
10) O=C1c2c(O)cc(O)cc2OC(c2ccc(O)cc2)C1C1C(=O)c2c(O)cc(O)cc2OC1c1ccc(O)cc1 (centres undefined) = 46.8
11) Cc1cccc(C)c1C1(Cl)C(=O)c2ccccc2C1=O = 13.5

====

Below, each entry is listed alongside its reported EC50.
- System: CEM cells HIV-1 protection, formazan growth assay
- Protocol: NCI AIDS Antiviral Assay
Value Kind: EC50

1) O=C1CCC2(c3ccccc3)Nc3cc([N+](=O)[O-])ccc3N12 (stereo not given) = > 24.5 µM
2) COC(=O)C1CCC(=S)N1C(C)=O (stereo not given) = > 200 µM
3) O=C(O)CSC1=NNC2(C(=O)N1)c1ccccc1-c1ccccc12 = > 200 µM
4) COc1ccc(/C=C(\C2=NC(=O)CS2)c2nc3ccccc3[nH]2)cc1 = > 20.9 µM
5) CCOC(=O)/C=C/c1ccc2c(c1)OC(CO)[C@H](c1ccc(O)c(OC)c1)O2 (stereo not given in full) = > 339 µM
6) O=C1/C(=C/c2ccc(O)c(O)c2)CC/C1=C\c1ccc(O)c(O)c1 = > 200 µM
7) O=C(CC1(O)C(=O)Nc2c(Cl)cc(Cl)cc21)c1ccco1 (stereo not given) = > 398 µM
8) O=C1c2ccccc2C(=O)c2c(SSc3cccc4c3C(=O)c3ccccc3C4=O)cccc21 = > 200 µM
9) CCOC(=O)[C@H]1Nc2ccc(OC)cc2C2c3ccccc3CC21 (stereo not given in full) = > 57.5 µM
10) CCOC(=O)c1ccc(CS(=O)(=O)c2ccc(OC)cc2)cc1 = > 56.2 µM

====

- System: CEM cells HIV-1 protection, formazan growth assay
- Protocol: NCI AIDS Antiviral Assay
- Conditions: measured here: growth of uninfected CEM cells
- Protocol: The ability of compounds to protect human CEM cells from HIV-1 infection is measured as a screen for new compounds capable of inhibiting the HIV virus. Five concentrations of drug were tested on uninfected and infected cells and cell growth was measured using a soluble formazan assay. […] Compounds that provided at least 50% protection were retested. Compounds that provided at least 50% protection on retest were listed as moderately active. […]
pIC50: −log10 of the molar value.
Rule: pIC50 under 5 gives No, otherwise Yes.

1. CC1(C)N=C(c2ccccc2)C2(c3ccccc3)N1C2(C)C (stereo unspecified) = No
2. Cc1ccc2cc([N+](=O)[O-])c3ccc(C)nc3c2n1 = Yes
3. CSCS(=O)C[C@H](CO)NC(=O)/C=C/c1c(C)[nH]c(=O)[nH]c1=O (stereo partly specified) = Yes
4. COc1ccc(N2C(=O)c3cc([N+](=O)[O-])cnc3S2(=O)=O)cc1 = No
5. CC(C)(C)c1cc(C(C)(C)C)c2[n+]([O-])ssc1-2 = No
